target: TEAD4 (Homo sapiens (Human), UniProt Q15561); test: TR-FRET lipid pocket probe competition assay (Lipid HTRF), TEAD4; format: binding; conditions: 4 hours pre-incubation; read-out: Lipid HTRF TEAD4 IC50;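 note: His-tagged TEAD4 with biotinylated lipid-pocket probe, read by Europium anti-His and XL665 streptavidin, where probe displacement lowers the TR-FRET signal, IC50 from a four-parameter fit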
Sequence (Q15561 whole entry, species assumed): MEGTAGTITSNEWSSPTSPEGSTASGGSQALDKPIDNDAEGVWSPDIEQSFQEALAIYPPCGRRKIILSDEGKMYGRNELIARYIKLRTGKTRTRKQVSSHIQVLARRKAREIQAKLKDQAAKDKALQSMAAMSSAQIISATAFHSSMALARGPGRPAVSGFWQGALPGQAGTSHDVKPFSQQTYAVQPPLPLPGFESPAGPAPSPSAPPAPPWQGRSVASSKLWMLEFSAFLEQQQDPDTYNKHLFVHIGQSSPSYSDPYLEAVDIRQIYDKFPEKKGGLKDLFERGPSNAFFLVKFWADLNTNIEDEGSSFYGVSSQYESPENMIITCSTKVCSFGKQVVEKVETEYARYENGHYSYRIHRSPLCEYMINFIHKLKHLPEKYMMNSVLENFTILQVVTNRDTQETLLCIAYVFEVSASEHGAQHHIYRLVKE
Readout kind: IC50 (nM)

Below are worked cases with known answers.
>>> df
                                   compound  unit_abbrev  test_value
0  C=CC(=O)NCc1nn(-c2ccc(OC(F)(F)F)cc2)c2nccc([C@@H](O)CO)c12 (stereo in doubt)           nM          61
1  C=CC(=O)NCc1nn(-c2ccc(OC(F)(F)F)cc2)c2nccc(-c3cn[nH]c3)c12           nM          22
2  C=CC(=O)NCc1nn(-c2ccc(OC(F)(F)F)cc2)c2ncccc12           nM         7.3

1: C=CC(=O)NCc1nn(-c2ccc(OC(F)(F)F)cc2)c2nccc(N3CC(NC)C3)c12
2: C=CC(=O)NCc1nn(-c2ccc(S(F)(F)(F)(F)F)cc2)c2cccc([C@H](O)CO)c12 (single isomer, unassigned)
Two entries are listed, 1 and 2 . Which one carries the higher IC50? Use the label to indicate which entry you chose.
1

A: C#Cc1ccnc2c1c(C1CN(C(=O)C=C)C1)nn2-c1ccc(OC(F)(F)F)cc1
B: C=C(C)S(=O)(=O)N1CC(c2nn(-c3ccc(OC(F)(F)F)cc3)c3nccc([C@H](O)CO)c23)C1
Please choose the item with the lower IC50 value from this pair: A and B Choose, then provide that item's label.
A

###

target: UniProt Q99594; experiment: TR-FRET lipid pocket probe competition assay (Lipid HTRF), TEAD3; assay type: binding; conditions: 4 hours pre-incubation; read-out: Lipid HTRF TEAD3 IC50
Readout kind: IC50 (µM)

Examples with answers:
>>> print(df.to_string())
                               smiles_entry  test_value
0  C=C(F)C(=O)N1CC(c2nn(-c3ccc(OC(F)(F)F)cc3)c3nccc(N4CC(F)(C(N)=O)C4)c23)C1        0.35
1  O=C(/C=C\Cl)NCc1nn(-c2ccc(OC(F)(F)F)cc2)c2nccc(CO)c12       0.087
2  O=C(NCc1nn(-c2ccc(OC(F)(F)F)cc2)c2nccc(CO)c12)C1=CCC1        0.28
3  [2H]C([2H])=C([2H])C(=O)NCc1nn(-c2ccc(OC(F)(F)F)cc2)c2nccc(CO)c12        0.29
4  C=CC(=O)NCc1nn(-c2ccc(OC(F)(F)F)cc2)c2nccc(-c3cnn(C)c3)c12        2.04
5  C=C(F)C(=O)N1CC(c2nn(-c3ccc(OC(F)(F)F)cc3)c3nccc(-n4ccnc4)c23)C1         1.3
6  C=CC(=O)NCc1nn(-c2ccc(OC(F)(F)F)cc2)c2nccc(N[C@H]3C[C@H](O)C3)c12          15
7  C=CC(=O)NCc1nn(-c2ccc(OC(F)(F)F)cc2)c2nccc([C@H]3COC(=O)O3)c12          50
8  C=CC(=O)NCc1nn(-c2ccc(OC(F)(F)F)cc2)c2nccc(-c3cnn(CCOC)c3)c12         1.7
9  C=CC(=O)NCc1nn(-c2ccc(OC(F)(F)F)cc2)c2nccc(N3CC(C)(O)C3)c12         4.1

P: C=C(F)C(=O)N1CC(c2nn(-c3ccc(OC(F)(F)F)cc3)c3nccc(-c4cn[nH]c4)c23)C1
Q: C=CC(=O)NCc1nn(-c2ccc(OC(F)(F)F)cc2)c2nccc(-c3cnn(C4COC4)c3)c12
R: C=CC(=O)NCc1nn(-c2ccc(OC(F)(F)F)cc2)c2nccc(CN3CC(O)C3)c12
List items by IC50 in falling order. Put the labels in the requested order and write them down.
R, Q, P

I: C=CC(=O)NCc1nn(-c2ccc(OC(F)(F)F)cc2)c2nccc(N3CC(F)C3)c12
II: C=C(F)C(=O)N1CC(c2nn(-c3ccc(OC(F)(F)F)cc3C)c3nccc(CO)c23)C1
Given the listed records, identify the one among I and II with higher IC50. Choose, then provide that item's label.
I
(I: 50 µM, II: 0.79 µM)

###

target: TEAD3 (Homo sapiens (Human)); assay: TR-FRET lipid pocket probe competition assay (Lipid HTRF), TEAD3; format: binding; details: 4 hours pre-incubation; read-out: Lipid HTRF TEAD3 IC50
Sequence (Q99594 whole entry, species assumed): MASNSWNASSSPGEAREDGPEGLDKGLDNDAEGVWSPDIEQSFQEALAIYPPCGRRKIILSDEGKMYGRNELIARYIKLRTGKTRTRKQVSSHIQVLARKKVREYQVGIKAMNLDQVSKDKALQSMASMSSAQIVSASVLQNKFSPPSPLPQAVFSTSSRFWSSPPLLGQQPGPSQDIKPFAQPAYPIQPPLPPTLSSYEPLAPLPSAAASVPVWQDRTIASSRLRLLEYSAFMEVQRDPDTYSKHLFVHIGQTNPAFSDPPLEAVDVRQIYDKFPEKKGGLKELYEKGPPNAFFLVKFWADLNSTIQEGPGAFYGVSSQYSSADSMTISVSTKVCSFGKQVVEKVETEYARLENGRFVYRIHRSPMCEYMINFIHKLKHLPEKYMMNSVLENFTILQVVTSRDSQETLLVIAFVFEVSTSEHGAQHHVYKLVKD
Readout kind: IC50 (nM)

In [3]: df
Out[3]:
                                   compound  readout_kind  test_value
0  C=CC(=O)NCc1nn(-c2ccc(OC(F)(F)F)cc2)c2nccc(C(C)(C)O)c12          IC50       34000
1  C=C(F)C(=O)N1CC(c2nn(-c3ccc(OC(F)(F)F)cc3)c3nccc(N4CC([C@H](O)CO)C4)c23)C1          IC50        2000
2  O=C(C1=CCCC1)N1CC(c2nn(-c3ccc(OC(F)(F)F)cc3)c3nccc(CO)c23)C1          IC50       50000
3  C=CC(=O)NCc1nn(-c2ccc(S(F)(F)(F)(F)F)cc2)c2nccc([C@@H](O)CO)c12 (stereo in doubt)          IC50        1100
4  C=CC(=O)NCc1nn(-c2ccc(S(F)(F)(F)(F)F)cc2)c2cccc(CO)c12          IC50         270

1: C=CC(=O)NCc1nn(-c2ccc(OC(F)(F)F)cc2)c2nccc(O[C@H]3C[C@@H](O)C3)c12
2: C=CC(=O)N(C)Cc1nn(-c2ccc(OC(F)(F)F)cc2)c2nccc([C@@H](O)CO)c12
Dear colleague, could you let me know whether 1 or 2 has the lower recorded IC50? Thanks. Write the label of whichever entry you select.
2
(2: 570 nM, 1: 50000 nM)

a: C=C(F)C(=O)N1CC(c2nn(-c3ccc(OC(F)(F)F)cc3)c3nccc(-c4cnn(CC(N)=O)c4)c23)C1
b: C=CC(=O)NCc1nn(-c2ccc(OC(F)(F)F)cc2)c2nccc(CO)c12
Choose between a and b : whose measured IC50 value is numerically larger? Selection: enter the item's label.
a
(a: 50000 nM, b: 220 nM)

###

target: TEAD2 (Homo sapiens (Human), UniProt Q15562);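 note: TR-FRET competition assay with His-tagged TEAD protein and a biotinylated lipid pocket probe, compound pre-incubated 30 min or 4 h at room temperature, displacement lowers signal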
Sequence (Q15562 whole entry, species assumed): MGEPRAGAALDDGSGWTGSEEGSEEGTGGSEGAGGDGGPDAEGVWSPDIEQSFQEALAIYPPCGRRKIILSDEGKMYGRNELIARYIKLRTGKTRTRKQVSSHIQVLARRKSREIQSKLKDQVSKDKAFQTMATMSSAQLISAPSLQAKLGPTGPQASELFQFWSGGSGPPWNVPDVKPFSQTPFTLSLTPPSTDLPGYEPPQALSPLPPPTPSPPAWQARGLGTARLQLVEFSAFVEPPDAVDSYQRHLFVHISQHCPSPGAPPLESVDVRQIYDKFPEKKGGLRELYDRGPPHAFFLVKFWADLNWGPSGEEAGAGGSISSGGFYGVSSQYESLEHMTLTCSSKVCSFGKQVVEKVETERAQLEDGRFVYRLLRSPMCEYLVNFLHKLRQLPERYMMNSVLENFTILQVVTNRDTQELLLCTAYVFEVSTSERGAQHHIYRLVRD
Readout kind: IC50 (nM)

                                   molecule  test_value
0  C=CC(=O)NCc1nn(-c2ccc(OC(F)(F)F)cc2)c2ncccc12          84
1  C=CC(=O)N(C)Cc1nn(-c2ccc(OC(F)(F)F)cc2)c2ccccc12          66
2  O=C(/C=C/CF)NCc1nn(-c2ccc(OC(F)(F)F)cc2)c2nccc(CO)c12          68
3  C=C(F)C(=O)N1CC(c2nn(-c3ccc(OC(F)(F)F)cc3)c3nccc(-c4cnn(CCOC)c4)c23)C1         800
4  C=CC(=O)NCc1nn(-c2ccc(OC(F)(F)F)cc2)c2nccc(-c3cnn(C4COC4)c3)c12         330
5  C=CC(=O)NCc1nn(-c2ccc(OC(F)(F)F)cc2)c2nccc(OCCO)c12         120
6  C/C=C(\C)C(=O)N1CC(c2nn(-c3ccc(OC(F)(F)F)cc3)c3nccc(CO)c23)C1         630
7  C=CC(=O)NCc1nn(-c2ccc(OC(F)(F)F)cc2)c2nccc(N3CCC(O)CC3)c12          66

I: C=CC(=O)NCc1nn(-c2ccc(OC(F)(F)F)cc2)c2nccc(CN(C)C)c12
II: O=C(NCc1nn(-c2ccc(OC(F)(F)F)cc2)c2nccc([C@H](O)CO)c12)C1=CCC1
Pick one: I or II . Which one has the lower reported IC50? Write down the label attached to your selection.
II

I: C=CC(=O)NCc1nn(-c2ccc(OC(F)(F)F)cc2)c2nccc(N3CC(NC(C)=O)C3)c12
II: C=CC(=O)NCc1nn(-c2ccc(OC(F)(F)F)cc2)c2nccc(O[C@H]3C[C@@H](O)C3)c12
Looking at recorded values for IC50, does I or II come in lower? Bench note: the answer is the label of the chosen record.
I

I: C=CC(=O)NCc1nn(-c2ccc(OC(F)(F)F)cc2)c2nccc(-c3cnn(C(C)C)c3)c12
II: C=CC(=O)NCc1nn(-c2ccc(OC(F)(F)F)cc2)c2nccc(C(=O)NC)c12
III: C=CC(=O)NCc1nn(-c2ccc(OC(F)(F)F)cc2)c2nccc(NCCO)c12
Sort entries by IC50 from minimum to maximum value. Answer by listing the labels in the requested order.
III, I, II
(III: 120 nM, I: 355 nM, II: 1500 nM)
